Readings of EC50 (agonist) for the listed binders
Target desc: T1, VPAC2
T1 sequence (P41587 whole entry, species assumed, looked up): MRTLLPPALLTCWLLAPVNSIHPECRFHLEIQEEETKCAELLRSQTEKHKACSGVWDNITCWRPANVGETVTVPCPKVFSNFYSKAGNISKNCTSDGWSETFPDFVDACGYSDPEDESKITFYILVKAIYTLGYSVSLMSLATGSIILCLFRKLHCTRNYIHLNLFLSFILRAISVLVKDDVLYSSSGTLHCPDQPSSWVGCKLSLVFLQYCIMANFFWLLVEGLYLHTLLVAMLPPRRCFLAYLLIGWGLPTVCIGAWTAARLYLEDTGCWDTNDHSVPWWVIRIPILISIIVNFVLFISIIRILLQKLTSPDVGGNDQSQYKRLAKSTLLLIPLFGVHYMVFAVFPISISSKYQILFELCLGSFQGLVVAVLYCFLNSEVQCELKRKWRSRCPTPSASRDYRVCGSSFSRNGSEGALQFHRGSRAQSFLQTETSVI
Experiment summary: cell-based or functional assay
Where no end group is shown, it is not given here.
Give a bare numeral; the unit µM is implied.

| Binder | EC50 (agonist) / µM |
| --- | --- |
| HSDGIFTDSYSRYRKQXAVKKYLAAVLS (D-Serine at 2 (s); L-Nor-Leucine at 17 (Ñ, written X in letters); Ser 28 = L-Ser(β-D-Glc)) [HsDGIFTDSYSRYRKQÑAVKKYLAAVL-Ser(Glc)] | 0.241 |
| HSDGIFTDSYSRYRKQXAVKKYLAAVS (D-Serine at 2 (s); L-Nor-Leucine at 17 (Ñ, written X in letters); Ser 27 = L-Ser(β-D-Glc)) [HsDGIFTDSYSRYRKQÑAVKKYLAAV-Ser(Glc)] | 0.654 |

Recorded EC50 (agonist) for HSDGIFTDSYSRYRKQLAVKKYLAAVLS(melibiose)-NH2 [HSDGIFTDSYSRYRKQLAVKKYLAAVL-Ser(Mel)] , please?
0.0094

Origin of measurements: patent US20240294595A1
